system: M14 melanoma; experiment: NCI tumour cell line growth inhibition, 48 h; in the data active = GI50 below about 0.43 µM; inactive = the rest
Returns: one label drawn from active, inactive

| compound | answer.label |
| --- | --- |
| CS(=O)(=O)CCN(CC#N)Cc1ccc(-c2ccc3ncnc(Nc4ccc(OCc5cccc(F)c5)c(Cl)c4)c3c2)o1 | inactive |
| NC1CCCCC1N.O=C([O-])c1cc(S(=O)(=O)Nc2cc(S(=O)(=O)[O-])cc3cc(S(=O)(=O)[O-])cc(O)c23)ccc1[O-].[Pt+4] | inactive |
| CN1CCN(c2ccc3[nH]c(C4=C(O)c5nc(CCl)n(C)c5C(=O)C4=O)nc3n2)CC1 | inactive |
| [C-]#[O+].[C-]#[O+].[C-]#[O+].[C-]#[O+].[O-]C(c1ccccc1[PH+]1OC(C(F)(F)F)(C(F)(F)F)c2ccccc21)(C(F)(F)F)C(F)(F)F.[Re] (centres undefined) | inactive |

Test call, this compound: O=c1oc2ccc(Br)cc2c(=O)n1-c1ccc(Br)cc1F
inactive

Fill in: this test's call for CCn1c(-c2nonc2N)nc2c(C#CC(C)(C)O)nc(CN3CCCC3)cc21 is ___
inactive

What did this assay record as the result for Cc1ncc(C(=O)Nc2ccc(CN3CCN(C)CC3)c(C(F)(F)F)c2)cc1C#Cc1c(N)ncc2ccc(F)cc12 ?
active

Kindly provide the recorded test outcome for the following compound: COc1cc2c(/C=C3\C(=O)N(C)c4ccc(O)cc43)c[nH]c2cc1C
inactive

Would you mind telling me which call this test gave O=C1C(Br)=CC2C1C1C3CCC3C2(Br)C12OCCO2 (centres undefined) ?
inactive

* * *

system: IGROV1 ovarian; assay: NCI tumour cell line growth inhibition, 48 h
metric: TGI (µM)
Answer in µM, number only, no unit symbol.

| compound | assay.system | observed.result |
| --- | --- | --- |
| COc1ccc2[nH]c3c(C)c4ccnc(NCCCN(C)CCCNc5ccc([N+](=O)[O-])c6[nH]c7ccccc7c(=O)c56)c4c(C)c3c2c1 | IGROV1 ovarian | 0.755 |

For the next question, use this compound.
// Input: O=c1[nH]cnc2c1ccn2C1OC(CO)C(O)C1O (stereo not given) . Output its TGI only.
35.1

* * *

test system: NCI-H460 lung
Bench note: report the call from class 1 = active, class 0 = inactive

Answer briefly: the call reported for Cc1cc(Nc2nc(-c3ccc(F)cc3)nc3ccccc23)n[nH]1 in this assay.
class 0

Returns: the outcome recorded for O=c1oc2ccc(Br)cc2c(=O)n1-c1ccc(Br)cc1F in this assay.
class 0

Which outcome was assigned to CCCCCCCCCC(CCCC(O)CC(=O)O)OC1OC(COC2OC(C)C(O)C(O)C2O)C(O)C(O)C1OC1OC(CO)C(O)C(O)C1OC1OC(C)C(OC(=O)CC(C)C)C(O)C1O (centres undefined) in this test?
class 0

Called result for C[C@H]1CCC/C=C/[C@@H]2C[C@H](O)C[C@H]2[C@H](O)[C@@H](S(=O)C[C@@H](N)C(=O)O)CC(=O)O1 (some centres undefined)
class 1

* * *

test system: OVCAR-4 ovarian; assay: NCI tumour cell line growth inhibition, 48 h
Here, each record is paired with measured TGI data.

Check out these entries, answers already filled in.
| compound | TGI |
| --- | --- |
| Nc1ccc(Cc2ccc(N=Cc3ccc(OCc4cccc(COc5ccc(C=Nc6ccc(Cc7ccc(N)cc7)cc6)cc5)n4)cc3)cc2)cc1 | > 100 µM |
| O=C(/C=C/c1ccc(Cl)cc1)c1ccc(Cl)c(Cl)c1 | > 100 µM |
| O=C1/C(=C\c2ccc(Cl)cc2)CCOc2c1ccc1ccccc21 | > 100 µM |

Please list TGI recorded for the compound COc1cccc2c1C(=O)c1c(O)c3c(c(O)c1C2=O)C[C@@](O)(C(C)=O)C[C@@H]3O[C@H]1C[C@H](N)[C@H](O)[C@H](C)O1
1.06 µM

Kindly indicate its recorded TGI. Item: O=C1C=C(c2[nH]c3ccccc3c2C2=CC(=O)c3ccccc3C2=O)C(=O)c2ccccc21
> 100 µM

For the compound CCOc1ccccc1N1C(=O)C(=O)C(c2nc3ccccc3s2)C(=O)C1=O , give its measured TGI value.
17.8 µM

Identify measured TGI corresponding to O=[N+]([O-])c1ccc(OCc2nnc(CCCCCCCCc3nnc(COc4ccc([N+](=O)[O-])cc4)o3)o2)cc1
> 100 µM

Output measured TGI for this item: COc1ccc2cc(C(=O)CCC(=O)O)ccc2c1
> 100 µM

Give recorded TGI. CCNCC(O)COc1ccc2c(c1)[n+]([O-])nc(N)[n+]2[O-] (centres undefined)
> 100 µM

Provide one value: measured TGI of COc1ccc2oc(=N)c(C(N)=O)cc2c1
> 100 µM
